# Subject Of Test: T1, B3GNT2 (Homo sapiens, UniProt Q9NY97)
# T1 construct: The respective ORFs of candidate genes [CD274 (NM_014143), MCL1 (NM_021960), JUNB (NM_002229), and B3GNT2 (NM_006577)] were synthesized; expressed in transfected cells; host or cells: A375 melanoma cells (lentiviral ORF overexpression)
# T1 sequence (Q9NY97 1-397): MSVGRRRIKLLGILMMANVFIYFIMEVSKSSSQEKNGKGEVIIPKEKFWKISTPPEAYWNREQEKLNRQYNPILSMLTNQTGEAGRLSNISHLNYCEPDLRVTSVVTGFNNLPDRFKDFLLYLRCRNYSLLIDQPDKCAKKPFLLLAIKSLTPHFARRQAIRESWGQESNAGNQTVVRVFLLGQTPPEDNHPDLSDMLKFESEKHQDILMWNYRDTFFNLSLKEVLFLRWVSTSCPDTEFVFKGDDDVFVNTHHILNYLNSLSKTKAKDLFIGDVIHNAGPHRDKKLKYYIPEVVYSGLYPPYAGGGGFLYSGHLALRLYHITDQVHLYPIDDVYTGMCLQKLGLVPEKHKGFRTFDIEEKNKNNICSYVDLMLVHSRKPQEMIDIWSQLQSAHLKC
# Test Name: Co-IP of FLAG-tagged B3GNT2 followed by mass spectrometry
# Format: cell-based
# Set-up: unit not given here
# Run Parameters: Co-IP with IgG control antibody, C-terminally FLAG-tagged B3GNT2; mass spectrometry count, unit not given

{"columns": ["Molecule", "C-term IgG"],
 "data": [
  ["HSD17B12 (protein) MESALPAAGFLYWVGAGTVAYLALRISYSLFTALRVWGVGNEAGVGPGLGEWAVVTGSTDGIGKSYAEELAKHGMKVVLISRSKDKLDQVSSEIKEKFKVETRTIAVDFASEDIYDKIKTGLAGLEIGILVNNVGMSYEYPEYFLDVPDLDNVIKKMININILSVCKMTQLVLPGMVERSKGAILNISSGSGMLPVPLLTIYSATKTFVDFFSQCLHEEYRSKGVFVQSVLPYFVATKLAKIRKPTLDKPSPETFVKSAIKTVGLQSRTNGYLIHALMGSIISNLPSWIYLKIVMNMNKSTRAHYLKKTKKN", 0],
  ["FAM3C (protein) QVFEIKMDASLGNLFARSALDTAARSTKPPRYKCGISKACPEKHFAFKMASGAANVVGPKICLEDNVLMSGVKNNVGRGINVALANGKTGEVLDTKYFDMWGGDVAPFIEFLKAIQDGTIVLMGTYDDGATKLNDEARRLIADLGSTSITNLGFRDNWVFCGGKGIKTKSPFEQHIKNNKDTNKYEGWPEVVEMEGCIPQKQD", 0],
  ["DSTN (protein) ASGVQVADEVCRIFYDMKVRKCSTPEEIKKRKKAVIFCLSADKKCIIVEEGKEILVGDVGVTITDPFKHFVGMLPEKDCRYALYDASFETKESRKEELMFFLWAPELAPLKSKMIYASSKDAIKKKFQGIKHECQANGPEDLNRACIAEKLGGSLIVAFEGCPV", 0],
  ["CHCHD6 (protein) GSTESSEGRRVSFGVDEEERVRVLQGVRLSENVVNRMKEPSSPPPAPTSSTFGLQDGNLRAPHKESTLPRSGSSGGQQPSGMKEGVKRYEQEHAAIQDKLFQVAKREREAATKHSKASLPTGEGSISHEEQKSVRLARELESREAELRRRDTFYKEQLERIERKNAEMYKLSSEQFHEAASKMESTIKPRRVEPVCSGLQAQILHCYRDRPHEVLLCSDLVKAYQRCVSAAHKG", 0],
  ["SMN1 (protein) AMSSGGSGGGVPEQEDSVLFRRGTGQSDDSDIWDDTALIKAYDKAVASFKHALKNGDICETSGKPKTTPKRKPAKKNKSQKKNTAASLQQWKVGDKCSAIWSEDGCIYPATIASIDFKRETCVVVYTGYGNREEQNLSDLLSPICEVANNIEQNAQENENESQVSTDESENSRSPGNKSDNIKPKSAPWNSFLPPPPPMPGPRLGPGKPGLKFNGPPPPPPPPPPHLLSCWLPPFPSGPPIIPPPPPICPDSLDDADALGSMLISWYMSGYHTGYYMEMLA", 2]
]}
